B1: TPR 5TU (parent)
chain: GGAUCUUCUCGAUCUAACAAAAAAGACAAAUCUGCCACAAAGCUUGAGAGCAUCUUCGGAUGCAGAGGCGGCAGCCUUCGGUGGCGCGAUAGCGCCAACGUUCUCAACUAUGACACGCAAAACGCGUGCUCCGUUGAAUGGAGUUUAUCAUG

Variants of: B1
Assay: polymerase ribozyme fitness, log enrichment relative to wild type (log ratio); higher = more active; in vitro selection for triplet polymerase activity
This sample holds only a part of the variants without activity.
test_readout: polymerase ribozyme fitness (log ratio)

variant_string | value_observed
C75G C76U A97U G141C | ≤ -4.2
C18U C87U C99U A119G C125G U135G | ≤ -4.2
A3U C43A U45A A47U G59C C125U U130C A137G | ≤ -4.2
C27U C76G G84U | ≤ -4.2
C87G C114G A137G | ≤ -4.2
A29G G50A G67U C75G C85A C123G C125G C132U A142C | ≤ -4.2
C72G A91G C99G U144A | ≤ -4.2
C14G G25A U55A U127C | ≤ -4.2
U6C G70A C76G C87A G88A C116A | ≤ -4.2
C5A C93U C105U C149G | -3.96
G46C U90A | ≤ -4.2
A28U A47C C63G G86C C129A | ≤ -4.2
G11A G84A C85U G88A C99A C131G U139C | ≤ -4.2
A41G U44G C75A G92A U102A U148C | ≤ -4.2
A28G C38U U61A G67U C85G A98G | -3.98
A64G C99A | -3.82
A16U A49C G50A C54G C96A U101C U135G | ≤ -4.2
U15G U53A A91G | -2.83
U31C A41C A91C C95G U139A G143C | ≤ -4.2
G81A A97G C125U | -0.572
A47U U55G G68A G84U U151A | ≤ -4.2
A40U U55G C96G | -0.541
A60C C99G U101G | ≤ -4.2
U15C A23G U82A C93G G126A | -4.14
G42C G86U U109G G141U | ≤ -4.2

Source of measurements: the RNAGym collection of RNA variant scans (doi:10.1073/pnas.2313332121)
